compounds and their reported Potency
# target-entity: Luciferin 4-monooxygenase (Photinus pyralis)
# assay: Counterscreen Assay for Enhancers of SMN2 Splice Variant Expression: Interaction with Luciferase Reporter
# experimental-conditions: purified firefly luciferase, luminescence, 5 min; series mostly up to 40.3 µM
Inconclusive results are not listed. Active and inactive are the calls of the source. Calls follow the shape of the dose curve; as a rule, active = well fitted inhibition curve with a large enough effect; inconclusive = small, poorly fitted or top-dose-only effect; inactive = flat fitted curve, though single readings scatter.

Query: Recorded Potency for FC(F)(F)c1nnc(-c2ccccc2)nc1Oc1ccccc1 , please?
Response: 11.2 µM (active)

Query: # lookup: Potency of Fc1ccc(Oc2nc(-c3ccccc3)nnc2C(F)(F)F)cc1
Response: 11.2 µM (active)

Query: Need Potency of Cc1oncc1C(=O)Nc1ccc(C(F)(F)F)cc1 , thanks.
Response: 0.891 µM (active)

Query: // lookup Potency for FC(F)(F)c1cccc(Oc2nc(-c3ccccc3)nnc2C(F)(F)F)c1
Response: 8.91 µM (active)

Query: Record request: Potency value, item O=[N+]([O-])c1ccc(-c2nnc(-c3ccccc3)c(NCCCO)n2)cc1
Response: 11.2 µM (active)

Query: Entry under review: Brc1ccc(-c2nnc(-c3ccccc3)c(N3CCSCC3)n2)cc1 . Reported Potency?
Response: 10 µM (active)
